test system: NCI-H23 lung; assay: NCI-60 one-dose screen, 48 h; conditions: 10 µM unless noted
Compounds without any hit were thinned out: in the full panel of roughly 83,000, 20% have a hit. Active and inactive are the calls of the source. The calls were made as follows: active = growth percent below 10; inactive = the rest.
Hi! Could you answer with just one of these? active, inactive

**Q:** Can you look up the reported call for N/C(=N\c1nc2ccccc2s1)NC(=O)Nc1ccccc1F for me?
**A:** inactive

**Q:** Can you look up the reported call for C[C@@H]1[C@H]2C[C@@H](C[C@H]1NCc1nc3ccccc3n1C1CCCCCC1)C2(C)C for me?
**A:** inactive

**Q:** Can you look up the reported call for Nc1nnc(CS(=O)(=O)c2ccccc2)s1 for me?
**A:** inactive

**Q:** Can you look up the reported call for CCCCNc1ccc2c3c(cccc13)C(=O)N(NCC(O)COc1ccc3c(C)cc(=O)oc3c1)C2=O (stereo not given) for me?
**A:** inactive

**Q:** Can you look up the reported call for COc1ccc(C2=NN(C(=O)[C@H]3[C@@H](c4ccco4)c4sc(=O)[nH]c4S[C@@H]3C)C(c3ccc4ccccc4c3)C2)cc1 (stereo not given in full) for me?
**A:** inactive
